Binary label based on fraction unbound, human plasma with cut-off 0.09: below gives Met, not below gives Not met.

{"compound": "C=CC(=O)N1C[C@H](Nc2ncnc3[nH]ccc23)CC[C@@H]1C", "classAssignment": "Not met"}
{"compound": "COc1ccc(CNC(=O)c2sc3nc(C)cc(C)c3c2N)cc1", "classAssignment": "Met"}
{"compound": "Fc1ccccc1-c1c[nH]nc1C1CCCN1Cc1ccc2ncccc2c1 (stereo unspecified)", "classAssignment": "Met"}
{"compound": "COc1ccc(Nc2c(C#N)cnc3cc(OC)c(OC)cc23)cc1Cl", "classAssignment": "Met"}
{"compound": "CC#CC(=O)N1CCC[C@@H]1c1nc(-c2ccc(C(=O)Nc3ccccn3)cc2)c2c(N)nccn12", "classAssignment": "Not met"}
{"compound": "OCC1CCCCN1Cc1ccc(Cl)c(Cl)c1 (stereo unspecified)", "classAssignment": "Not met"}
